Assay: chemical genetic growth profiling, strain panel (AID 1159580);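 note: tested at 20 µM; growth read once vehicle control cultures reached saturation at 30 °C; 1 = growth at the plate median or of vehicle wells; lower values mean less growth of the strain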
Conditions: S. cerevisiae deletion strains, growth OD, locus YLR371W, strain rom2, active compounds read low
Among all 5,500 compounds or so, about 2,000 (36%) were called active. Inconclusive results (about 18%) are left out. The list shows a part of the results.
Recorded Endpoint: normalized growth
Reply briefly: the number, and no unit.

Could you tell me which normalized growth is on file for COC1=CC(C)[C@@H]2C[C@H]3OC(=O)C[C@H]4C(C)=C(OC)C(=O)C([C@@]34C)[C@@]2(C)C1=O (some centres not stated) ? 1.02

Could you tell me which normalized growth is on file for NC[C@H]1O[C@H](OC2[C@@H](N)C[C@@H](N)[C@H](O[C@H]3O[C@H](CO)[C@@H](O)[C@H](N)[C@H]3O)[C@H]2O)[C@H](O)[C@@H](O)[C@@H]1O (some centres not stated) ? 0.981

* * *

Assay: chemical genetic growth profiling, strain panel (AID 1159580)
Conditions: S. cerevisiae deletion strains, growth OD, locus YOR119C, strain RIO1, active compounds read low
The whole screen tested about 5,500 compounds, of which about 2,000 (36%) were called active. Not shown: some 18% with an inconclusive outcome. The list shows a part of the results.
Catalogue of normalized growth readings, one per entry.
Reply briefly: the number, and no unit.

Worked set:
O=c1[nH][nH]c(=O)n1CCCc1cc2cccc3ccc4cccc1c4c32	0.993
O=C1Nc2ccccc2/C1=C\c1c[nH]c2ccccc12	0.154
CN(C)/C=C1\CSc2ccc(Cl)cc2C1=O	0.862

Could you tell me which normalized growth is on file for O=C1Nc2ccccc2/C1=C\c1cccc2ccccc12 ? 0.885

Could you tell me which normalized growth is on file for O=C(NNc1cc(C(F)(F)F)cc(C(F)(F)F)c1)c1cnc2n(c1=O)CCS2 ? 0.983

* * *

Test: chemical genetic growth profiling, strain panel (AID 1159580);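 note: tested at 20 µM; growth read once vehicle control cultures reached saturation at 30 °C; 1 = growth at the plate median or of vehicle wells; lower values mean less growth of the strain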
Conditions: S. cerevisiae deletion strains, growth OD, locus YAL021C, strain ccr4, active compounds read low
Out of some 5,500 compounds screened, about 2,000 (36%) were called active. Not shown: some 18% with an inconclusive outcome. The list shows a part of the results.
Recorded Endpoint: normalized growth
Reply briefly: the number, and no unit.

COC1CC(O[C@H]2CC[C@]3(C=O)C4CC[C@]5(C)C(C6=CC(=O)OC6)CC[C@]5(O)C4CC[C@]3(O)C2)OC(C)C1O (some centres undefined)	0.938
CC1CCCC(C)N1NC(=O)c1ccc(Cl)c(S(N)(=O)=O)c1 (centres undefined)	1
CC1Cc2ccccc2N1NC(=O)c1ccc(Cl)c(S(N)(=O)=O)c1 (centres undefined)	1
Nc1nc(/C(=C/CC(=O)O)C(=O)N[C@@H]2C(=O)N3C(C(=O)O)=CCS[C@H]23)cs1	1.01
CO[C@@H]1[C@@H](OC(N)=O)[C@@H](O)[C@H](Oc2ccc3c(O)c(NC(=O)c4ccc(O)c(CC=C(C)C)c4)c(=O)oc3c2C)OC1(C)C	1.03

Could you tell me which normalized growth is on file for CC(C)C[C@@H](NC(=O)OCC1c2ccccc2-c2ccccc21)C(=O)O ? 0.988

Could you tell me which normalized growth is on file for CC1(C)O[C@@H]2CC3C4C[C@H](F)C5=CC(=O)CC[C@]5(C)C4[C@@H](O)C[C@]3(C)[C@]2(C(=O)CO)O1 (some centres undefined) ? 0.971

Could you tell me which normalized growth is on file for COC(=O)NC(=S)Nc1ccccc1NC(=S)NC(=O)OC ? 0.92

Could you tell me which normalized growth is on file for C[C@@H]1CCC2[C@](C)(CO)[C@@H](O)CC[C@]2(C)[C@@]12CC[C@@](CO)(CCO)O2 (some centres undefined) ? 0.991

* * *

Experiment: chemical genetic growth profiling, strain panel (AID 1159580);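 note: tested at 20 µM; growth read once vehicle control cultures reached saturation at 30 °C; 1 = growth at the plate median or of vehicle wells; lower values mean less growth of the strain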
Details: S. cerevisiae deletion strains, growth OD, locus YGR135W, strain pre9
In all, about 5,500 compounds went through this assay and about 2,000 (36%) were called active. Inconclusive results (about 18%) are left out. No stated cut-off is given here; in the data, active means normalized growth mostly below about 0.91 (no sharp cut-off); inconclusive means no clear call, values can overlap the other calls; inactive means mostly above about 0.92. The list shows a part of the results.
Choose the fitting class; nothing outside 1 for active, 0 for inactive is accepted.

Solved entries:
COC(=O)C(N)CS (centres undefined)	0
CCCc1nn(C)c2c(=O)[nH]c(-c3cc(S(=O)(=O)N4CCN(C)CC4)ccc3OCC)nc12	0
O=C(/C=C(\O)c1ccccc1)c1ccccc1O	1
CO[C@@H]1[C@@H](OC(N)=O)[C@@H](O)[C@H](Oc2ccc3c(O)c(NC(=O)c4ccc(O)c(CC=C(C)C)c4)c(=O)oc3c2C)OC1(C)C	0
NS(=O)(=O)c1cc2c(cc1C(F)(F)F)NC(Cc1ccccc1)NS2(=O)=O (centres undefined)	0
O=C(O)c1ccccc1O	0
CC1(C)C(O)CC(=O)C2(C)C1CC(O)C1(C)C2CCC2(C)C(c3ccoc3)OC(=O)C3OC321 (centres undefined)	0
CCOC(=O)C1=C(O)C(=O)N(Cc2ccccc2)C1	0

Here is another compound to look at.
Fill in: this test's call for NC[C@@H]1O[C@H](O[C@@H]2[C@@H](CO)OC(O[C@@H]3[C@@H](O)[C@H](N)C[C@H](N)[C@H]3O[C@H]3O[C@H](CO)[C@@H](O)[C@H](O)[C@H]3N)[C@@H]2O)[C@H](N)[C@@H](O)[C@@H]1O (some centres undefined) is ___ 0

* * *

Catalogue of normalized growth readings, one per entry.
Assay: chemical genetic growth profiling, strain panel (AID 1159580);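 note: tested at 20 µM; growth read once vehicle control cultures reached saturation at 30 °C; 1 = growth at the plate median or of vehicle wells; lower values mean less growth of the strain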
Settings: S. cerevisiae deletion strains, growth OD, locus YDR335W, strain msn5, active compounds read low
Among all 5,500 compounds or so, about 2,000 (36%) were called active. Not shown: some 18% with an inconclusive outcome. This is one part of the list.
Reply briefly: the number, and no unit.

Worked set:
COc1ccc(-c2cc(=O)c3c(O)cc(O)cc3o2)cc1	0.978
CC1=CC(=O)C(C(C)C)=CC1=O	0.998
COC1CC(O[C@H]2CC[C@]3(C=O)C4CC[C@]5(C)C(C6=CC(=O)OC6)CC[C@]5(O)C4CC[C@]3(O)C2)OC(C)C1O (some centres undefined)	0.955

Could you tell me which normalized growth is on file for C/C=C/CC(C)C(O)C1C(=O)NC(CC)C(=O)N(C)CC(=O)N(C)C(CC(C)C)C(=O)NC(C(C)C)C(=O)N(C)C(CC(C)C)C(=O)NC(C)C(=O)NC(C)C(=O)N(C)C(CC(C)C)C(=O)N(C)C(CC(C)C)C(=O)N(C)C(C(C)C)C(=O)N1C (centres undefined) ? 1.02

Could you tell me which normalized growth is on file for NCCCN ? 0.987

Could you tell me which normalized growth is on file for C=CCSC[C@@H](N)C(=O)O ? 0.997

Could you tell me which normalized growth is on file for NC(=O)c1ccc([N+](=O)[O-])cc1Cl ? 0.981

Could you tell me which normalized growth is on file for C[C@H]1[C@H](C)CC[C@]2(C(=O)O)CC[C@]3(C)C(=CCC4[C@@]5(C)C[C@@H](O)[C@H](O)[C@@](C)(CO)C5CC[C@]43C)[C@H]12 (some centres undefined) ? 1.02

Could you tell me which normalized growth is on file for CC(=O)OC1CC[C@@]2(C)C(CCC3C2CC[C@]2(C)C(C4=CC(=O)OC4)C(OC(C)=O)CC32O)C1 (some centres undefined) ? 0.978

Could you tell me which normalized growth is on file for CC1=CC(=O)C2C(C)(C)CCC[C@]2(C)[C@@]1(O)CCc1ccoc1 (some centres undefined) ? 0.958

Could you tell me which normalized growth is on file for CC(=O)O[C@@H]1c2c(ccc3ccc(=O)oc23)OC(C)(C)[C@@H]1OC(=O)CC(C)C ? 1.02

Could you tell me which normalized growth is on file for NC[C@H]1O[C@H](O[C@H]2[C@H](O)[C@@H](O[C@H]3O[C@H](CO)[C@@H](O)[C@H](N)[C@H]3O)[C@H](N)C[C@@H]2N)[C@H](N)[C@@H](O)[C@@H]1O ? 0.994

Could you tell me which normalized growth is on file for CC1CCCC(C)N1NC(=O)c1ccc(Cl)c(S(N)(=O)=O)c1 (centres undefined) ? 1.02

Could you tell me which normalized growth is on file for CC1(C)S[C@@H]2[C@H](NC(=O)C(C(=O)O)c3ccccc3)C(=O)N2[C@H]1C(=O)O (some centres undefined) ? 0.978

Could you tell me which normalized growth is on file for CO[C@H]1[C@@H](O)[C@@H](C)O[C@H](O[C@H]2CCC3(C)C4CCC5(C)[C@@H](C6=CC(=O)OC6)CC[C@]5(O)[C@@H]4CC[C@]3(O)C2)[C@@H]1O (some centres undefined) ? 1.02

Could you tell me which normalized growth is on file for COC(=O)[C@H]1[C@H]2C[C@H]3c4[nH]c5cc(OC)ccc5c4CCN3C[C@H]2C[C@@H](OC(=O)c2cc(OC)c(OC)c(OC)c2)[C@@H]1OC ? 1.02

Could you tell me which normalized growth is on file for CC1Cc2ccccc2N1NC(=O)c1ccc(Cl)c(S(N)(=O)=O)c1 (centres undefined) ? 1

Could you tell me which normalized growth is on file for Cc1ncc(CO)c(CO)c1O ? 1.02

Could you tell me which normalized growth is on file for COC1CC(OC2CCC3(C)C(CCC4C3CCC3(C)C(C5=CC(=O)OC5)C(OC(C)=O)CC43O)C2)OC(C)C1O (centres undefined) ? 1.03
